Tested on: M14 melanoma
Experiment: NCI tumour cell line growth inhibition, 48 h
Overview of recorded TGI for various molecules

Solved cases (5 shown):
Cc1nc2ccccc2c(=O)n1NC(=O)c1ccc(N)cc1	> 100 µM
COc1ccc(/C=C/c2cc(OC)cc(OC)c2)cc1	53.1 µM
COc1ccc(-c2ncnc(-c3ccc(OC)c(OC)c3)n2)cc1OC	> 100 µM
CCOC(=O)N1CCC2C(=C(C)C(C)C3=C2C(=O)c2ccccc2C3=O)C1 (stereo not drawn)	> 10 µM
C=CCN(c1cc(OCc2ccccc2)c2c(c(C)cn2S(=O)(=O)c2ccc([N+](=O)[O-])cc2)c1[N+](=O)[O-])S(C)(=O)=O	> 100 µM

Need TGI of CC(=O)Oc1c(C)cc2c(c1C)C(C)CN2C(C)=O (stereo not drawn) , thanks.
> 100 µM

Need TGI of CC(C)[C@@H](C)CC[C@@H](C)C1CC=C2[C@@H]3CCC4C[C@@H](O[Si](C)(C)C(C)(C)C)CC[C@]4(C)C3CC[C@@]21C (stereo partly drawn) , thanks.
> 100 µM

Need TGI of COc1ccc(-n2cnc3c(N)nc(N)nc32)cc1 , thanks.
> 100 µM

Need TGI of CC(=O)N(C(C)=O)c1c(N)n(C)c(=O)[nH]c1=O , thanks.
> 100 µM

Need TGI of CC(=O)c1c(-c2ccc(Cl)cc2)c(C#N)c(=S)n(C2OC(CO)C(O)C(O)C2O)c1-c1ccccc1 (stereo not drawn) , thanks.
> 100 µM

Need TGI of CC(=O)/C(N=Nc1ccc(-n2c(C)nc3ccccc3c2=O)cc1)=C(/C)O , thanks.
> 100 µM

Need TGI of Cc1ccc(NC(=O)CC(=O)n2nc(-c3ccccc3)c(N=Nc3ccccc3[N+](=O)[O-])c2-c2ccccc2)cc1 , thanks.
> 100 µM

====

System: M14 melanoma
Experiment: NCI tumour cell line growth inhibition, 48 h
Readout label: GI50

Solved cases (5 shown):
Cc1ccc(Cl)cc1Nc1nc(C(F)(F)F)ccc1C(N)=O	10.7 µM
O=C1C(C(Nc2ccccc2)c2ccccc2)=C([O-])c2ccccc21.O=C1C(C(Nc2ccccc2)c2ccccc2)=C([O-])c2ccccc21.[Ni+2] (stereo not given)	7.99 µM
O=C1/C(=C/c2ccc(Cl)cc2Cl)CN(S(=O)(=O)c2ccccc2)C/C1=C\c1ccc(Cl)cc1Cl	2.77 µM
Cc1cc(Cl)ccc1Nc1nc(C(F)(F)F)ccc1C(=O)N/N=C/c1cccc(O)c1	4.53 µM
N[C@@H]1CCCC[C@@H]1N.O=P([O-])([O-])CNCP(=O)([O-])[O-].[Pt+2]	> 100 µM

Need GI50 of Fc1cc(-c2csc3n[nH]c(=S)n23)c(Cl)cc1Cl , thanks.
39.9 µM

Need GI50 of CC(=O)Oc1cn(-c2ccc(Cl)cc2)nc1C1=NN(C(C)=O)C(c2ccc(F)cc2F)O1 (stereo not given) , thanks.
31.4 µM

Need GI50 of CCOC(=O)C(=Cc1ccc(-c2ccccc2)cc1)C(=O)OCC , thanks.
3.14 µM

Need GI50 of COc1ccc(-c2nc(S(=O)(=O)c3ccccc3)c(S(=O)CC(=O)N3CCC(C)CC3)o2)cc1 (stereo not given) , thanks.
1.89 µM

Need GI50 of Cn1ccnc1C(=O)/C=C/c1ccc(C(=O)Nc2ccc(F)cc2)cc1 , thanks.
1.16 µM
